# T/C listing for each entry below
- System: CD2F1 mice, L1210 leukemia ip, survival T/C
- EXPERIMENTAL_DETAILS: NCI In Vivo Anticancer Drug Screen. Data for tumor model L1210 Leukemia (intraperitoneal) in CD2F1 (CDF1) mice
- MEASUREMENT_CONDITIONS: endpoint: mean survival time; dose: 50.0 mg/kg/injection; schedule: Q01DX009 (ip); vehicle: saline; higher = longer survival
Toxic doses and inconclusive results are not listed.

The examples below pair each entry with its known result.
{"MOLECULE": "CCCCNC(C)(C)C(=O)c1cccs1", "TARGET": "CD2F1 mice, L1210 leukemia ip, survival T/C", "T/C": "98 % of control"}
{"MOLECULE": "O/N=C(\\CN1CCOCC1)c1ccc(Cl)cc1", "TARGET": "CD2F1 mice, L1210 leukemia ip, survival T/C", "T/C": "107 % of control"}
{"MOLECULE": "CC(C#N)C(N)=O (stereo not given)", "TARGET": "CD2F1 mice, L1210 leukemia ip, survival T/C", "T/C": "102 % of control"}

Query: What T/C value was documented for this molecule, `NCCCCC1(CCCCN)OCCO1` ?
Result: 102 % of control

Query: What T/C value was documented for this molecule, `CCCNCCN(CC)CC` ?
Result: 96 % of control

* * *

# T/C listing for each entry below
- Tested on: CD2F1 mice, L1210 leukemia ip, survival T/C
- EXPERIMENTAL_DETAILS: NCI In Vivo Anticancer Drug Screen. Data for tumor model L1210 Leukemia (intraperitoneal) in CD2F1 (CDF1) mice
- MEASUREMENT_CONDITIONS: endpoint: mean survival time; dose: 50.0 mg/kg/injection; schedule: Q04DX003 (ip); vehicle: saline with Tween-80; higher = longer survival
Inconclusive results and toxic doses are left out.

The examples below pair each entry with its known result.
{"COMPOUND": "O=S(=O)(O)c1ccc(N=Nc2ccc(O)cc2)cc1", "T/C": "107 % of control"}
{"COMPOUND": "O=[n+]1ccn2cc3ccccc3cc2c1", "T/C": "100 % of control"}
{"COMPOUND": "C=C(C)CSC#N", "T/C": "100 % of control"}

Query: What T/C value was documented for this compound, CC1CCC(C(C)C2C(O)CC3C4CC=C5CC(O)CCC5(C)C4CCC32C)NC1 (stereo not given) ?
Result: 93 % of control

Query: What T/C value was documented for this compound, COc1ccc(/C=C/C(CC(NO)c2ccc(OC)cc2)=N/O)cc1 (stereo not given) ?
Result: 102 % of control

Query: What T/C value was documented for this compound, CCOC(=O)c1ccc(NC(=O)NC(Cc2ccccc2)c2ccccc2)cc1 (stereo not given) ?
Result: 104 % of control

Query: What T/C value was documented for this compound, `CC1=C(/C=C/C(C)=N/NC(N)=S)C(C)(C)CCC1` ?
Result: 104 % of control

Query: What T/C value was documented for this compound, N#CC1C(=O)NC(O)(c2ccccc2)C1c1ccccc1 (stereo not given) ?
Result: 105 % of control

Query: What T/C value was documented for this compound, `O=N[O-].O=N[O-].[NH-]CC[NH-].[Pt+2]` ?
Result: 98 % of control

Query: What T/C value was documented for this compound, O=C(Nc1ccccn1)C(O)C(O)C(O)C(O)CO (stereo not given) ?
Result: 89 % of control

Query: What T/C value was documented for this compound, `Clc1ccc2c(NCCN3CCCCCC3)nc(C(Cl)(Cl)Cl)nc2c1` ?
Result: 103 % of control

Query: What T/C value was documented for this compound, `C[CH2][Sn]([c]1ccccc1)([c]1ccccc1)[c]1ccccc1` ?
Result: 94 % of control

Query: What T/C value was documented for this compound, `CCOP(=O)(NCCOC)OCC` ?
Result: 94 % of control

Query: What T/C value was documented for this compound, `CC(=O)Nc1ncc([N+](=O)[O-])s1` ?
Result: 100 % of control

Query: What T/C value was documented for this compound, `[Cl][Pt+2][Cl].[NH-]c1cccc(C(F)(F)F)c1.[NH-]c1cccc(C(F)(F)F)c1` ?
Result: 103 % of control

* * *

- Test system: CD2F1 mice, L1210 leukemia ip, survival T/C
- EXPERIMENTAL_DETAILS: NCI In Vivo Anticancer Drug Screen. Data for tumor model L1210 Leukemia (intraperitoneal) in CD2F1 (CDF1) mice
- MEASUREMENT_CONDITIONS: endpoint: mean survival time; dose: 400.0 mg/kg/injection; schedule: Q04DX002 (ip); vehicle: saline with Tween-80
- Experimental: The antitumor activity of compounds was measured in mice bearing transplantable tumors. Survival or tumor size were measured and the results are expressed as the measurement made in the treated group (T) divided by the measurement made in the vehicle treated control group (C). The tumor model used in this assay is L1210 Leukemia (intraperitoneal) in CD2F1 (CDF1) mice
Inconclusive results and toxic doses are left out. The calls were made as follows: active = survival T/C of 150% or more; inactive = T/C below 125% in these data.
Outcome field: choose from yes (1) (active), no (0) (inactive)

{"COMPOUND": "CN(Cc1cnc(N)c(C#N)n1)c1ccc(C(=O)NC(CCC(=O)OC(C)(C)C)C(=O)OC(C)(C)C)cc1 (stereo unspecified)", "TARGET": "CD2F1 mice, L1210 leukemia ip, survival T/C", "CLASSIFICATION": "no (0)"}
{"COMPOUND": "Nc1ncnc2c1[nH]c(=O)n2C1OC(CO)C(O)C1O (stereo unspecified)", "TARGET": "CD2F1 mice, L1210 leukemia ip, survival T/C", "CLASSIFICATION": "no (0)"}
{"COMPOUND": "CC/C=N/NC(=O)c1ccc[n+](C)c1", "TARGET": "CD2F1 mice, L1210 leukemia ip, survival T/C", "CLASSIFICATION": "no (0)"}
{"COMPOUND": "CC(=O)OC(Cc1ccc(Cl)cc1)c1ccc(Cl)cc1 (stereo unspecified)", "TARGET": "CD2F1 mice, L1210 leukemia ip, survival T/C", "CLASSIFICATION": "no (0)"}
{"COMPOUND": "O=C(Nc1ccc(Cl)c(Cl)c1)Nc1ccc(Cl)c(Cl)c1 (tested in a mixture with another compound)", "TARGET": "CD2F1 mice, L1210 leukemia ip, survival T/C", "CLASSIFICATION": "no (0)"}

Query: Recorded test call requested for `Cc1nc(C)c(C#N)c(=O)[nH]1`
Result: no (0)

Query: Recorded test call requested for `Cc1cccc(NC(=O)/C=C/c2ccccc2)c1C`
Result: no (0)

Query: Recorded test call requested for C/C(=N\Nc1ccccc1)C1=C(O)C(Cc2ccccc2)NC1=O (stereo unspecified)
Result: no (0)

Query: Recorded test call requested for `CCN(CC)C(=O)SCCSC(=O)N(CC)CC`
Result: no (0)

Query: Recorded test call requested for CCCCCCCCCCCCCCCCCCCCCC(=O)Nc1ccn(C2OC(CO)C(O)C2O)c(=O)n1 (stereo unspecified)
Result: yes (1)

Query: Recorded test call requested for CC1CC(C)(C)N=C(C2(c3ccccc3)CCC2)O1 (stereo unspecified)
Result: no (0)

* * *

- Tested on: CD2F1 mice, L1210 leukemia ip, survival T/C
- EXPERIMENTAL_DETAILS: NCI In Vivo Anticancer Drug Screen. Data for tumor model L1210 Leukemia (intraperitoneal) in CD2F1 (CDF1) mice
- MEASUREMENT_CONDITIONS: endpoint: mean survival time; dose: 100.0 mg/kg/injection; schedule: Q04DX002 (ip); vehicle: saline; higher = longer survival
Toxic doses and inconclusive results are not listed.
MEASUREMENT_NAME: T/C

The examples below pair each entry with its known result.
{"COMPOUND": "CC(=O)NCN(C)N=O", "T/C": "91 % of control"}
{"COMPOUND": "CCCCCCCCCCCC(=O)OCCN(C=O)C[n+]1ccccc1", "T/C": "101 % of control"}
{"COMPOUND": "Nc1ncnc2c1ncn2C1OC(C(=O)OCCO)C(O)C1O (stereo not drawn)", "T/C": "93 % of control"}
{"COMPOUND": "C=CC(NC(=O)CN)C(=O)O (stereo not drawn)", "T/C": "107 % of control"}
{"COMPOUND": "N=C(CN1CCCCC1)N1CCCCC1", "T/C": "112 % of control"}

Query: What T/C value was documented for this compound, COC1OC(C)CC(C)(C)O1 (stereo not drawn) ?
Result: 89 % of control

Query: What T/C value was documented for this compound, `CC1=NCCN1CCN` ?
Result: 91 % of control

Query: What T/C value was documented for this compound, `NN1CCCCC1` ?
Result: 103 % of control

* * *

# T/C listing for each entry below
- Tested on: CD2F1 mice, L1210 leukemia ip, survival T/C
- EXPERIMENTAL_DETAILS: NCI In Vivo Anticancer Drug Screen. Data for tumor model L1210 Leukemia (intraperitoneal) in CD2F1 (CDF1) mice
- MEASUREMENT_CONDITIONS: endpoint: mean survival time; dose: 75.0 mg/kg/injection; schedule: Q01DX001 (ip); vehicle: saline; higher = longer survival
- Procedure: The antitumor activity of compounds was measured in mice bearing transplantable tumors. Survival or tumor size were measured and the results are expressed as the measurement made in the treated group (T) divided by the measurement made in the vehicle treated control group (C). The tumor model used in this assay is L1210 Leukemia (intraperitoneal) in CD2F1 (CDF1) mice
Inconclusive results and toxic doses are left out.

The examples below pair each entry with its known result.
{"COMPOUND": "CC(CNC1CCCCC1)OC(=O)c1ccc(N(C)C)cc1 (stereo unspecified)", "T/C": "99 % of control"}
{"COMPOUND": "CCC(CC)=NN(C)C", "T/C": "100 % of control"}
{"COMPOUND": "COc1cc2c(cc1Oc1c(O)c(OC)cc3c1C(C)N(C)CC3)C(C)N(C)CC2 (stereo unspecified)", "T/C": "101 % of control"}
{"COMPOUND": "CCC(C)NCCO (stereo unspecified)", "T/C": "96 % of control"}
{"COMPOUND": "Cc1cc(=O)[nH]c(-n2nc(N)nc2N)n1", "T/C": "107 % of control"}
{"COMPOUND": "COc1cc(C2CNCc3cc(OC)c(OC)cc32)ccc1O (stereo unspecified)", "T/C": "96 % of control"}

Query: // fetch CD2F1 mice, L1210 leukemia ip, survival T/C T/C for `O=C(NCCN1CCCCC1)C(O)(C1CCCCC1)C1CCCCC1`
Result: 97 % of control

Query: // fetch CD2F1 mice, L1210 leukemia ip, survival T/C T/C for `COc1ccc2c(c1)OC(C)(C)C(c1ccccc1)=C2c1ccc(OCCN2CCCC2)cc1`
Result: 98 % of control

Query: // fetch CD2F1 mice, L1210 leukemia ip, survival T/C T/C for `Nc1nc(N)c2c(n1)CN(c1ccc(Cl)cc1)C2`
Result: 104 % of control

Query: // fetch CD2F1 mice, L1210 leukemia ip, survival T/C T/C for `CCNCc1ccc2c(c1)OCO2`
Result: 101 % of control

Query: // fetch CD2F1 mice, L1210 leukemia ip, survival T/C T/C for `Nc1nc(N)c2c(n1)CN(c1ccccc1)C2`
Result: 102 % of control
